read-out: Interleukin-1 alpha (IL1a), IL1A (gene 3552); test: BSK_BE3C_IL1a: BioMAP Diversity Plus: BE3C Assay for Interleukin-1 alpha (IL1a) Biomarker Activity (AID 2283016); conditions: primary human bronchial epithelial cells; actives raise or lower the signal
The source made the active and inactive calls. Rule for the calls: active = hit-call score of the fitted dose curve at least 0.9, where 1 is the maximum; inactive = score below 0.9.
Could you please pick one outcome from this set? active, inactive

Molecule: O=C(OCCCCCOC(=O)c1ccccc1)c1ccccc1
Class label: inactive
--
Molecule: Nc1ccc(S(=O)(=O)c2ccc(N)cc2)cc1
Class label: inactive
--
Molecule: CNC(=O)[C@H]1O[C@@H](n2cnc3c(NCc4cc(Cl)ccc4OCc4cc(C)no4)ncnc32)[C@H](O)[C@@H]1N
Class label: inactive
--
Molecule: CCCCCCCC=O
Class label: inactive
--
Molecule: CC(C)c1ccc(C(=O)N=C(N)N)cc1S(C)(=O)=O
Class label: inactive

Which outcome was entered for the molecule "Cc1cccc([N+](=O)[O-])c1C" in this test?
inactive

Dear colleague, could you share the recorded outcome for "CCCCCCCCCCCCCO" when you have a moment?
inactive

// return assay outcome for "CCCCCCCCCCCCCCCC"
inactive

Can you look up the reported call for "Cc1cccc(C)c1O" for me?
inactive

Answer briefly: the call reported for "CC=Cc1ccc(O)c(OC)c1" in this assay.
inactive

* * *

read-out: E-selectin (Homo sapiens); experiment: BSK_LPS_Eselectin: BioMAP Diversity Plus: LPS Assay for Eselectin Biomarker Activity (AID 2283077); conditions: primary human HUVEC with PBMC; actives raise or lower the signal
Calls of active or inactive are those of the source. How the source made its calls: active means hit-call score of the fitted dose curve at least 0.9, where 1 is the maximum; inactive means score below 0.9.
Classes to choose from: label 1 = active, label 0 = inactive

Use these answered entries as a reference point.
Compound: COc1cc(-c2nc(NC(=O)c3cc4cc(C)cc(C)c4n3CC(=O)O)sc2CCC2CCCCC2)c(OC)cc1Cl
Class label: label 1
//
Compound: NCC1(Cc2noc(=O)[nH]2)CCCCC1
Class label: label 0
//
Compound: C[C@]12C=CC(=O)C=C1CC[C@@H]1[C@@H]2C(=O)C[C@@]2(C)[C@H]1CC[C@]2(O)C(=O)CO
Class label: label 0
//
Compound: O=c1c(O)c(-c2ccc(O)c(O)c2)oc2cc(O)cc(O)c12
Class label: label 0
//
Compound: Cc1nc(-c2ccc3c(c2)CCN(CCC2CCC(NC(=O)/C=C/c4ccc(F)cc4)CC2)CC3)no1 (configuration not stated)
Class label: label 0

Record request — test call for "CC1(C)NC(=O)NC1=O"
label 0

Please share the test call associated with "Cc1cccc([N+](=O)[O-])c1C" .
label 0

Just curious, what result did "CC1=C(/C=C/C(C)=C/C=C/C(C)=C/CO)C(C)(C)CCC1" get here?
label 1

Hi, sorry to bother you, what did the test record for "Cc1oc(-c2ccccc2)nc1CCOc1cccc2c1ccn2CCC(=O)O" ?
label 0

// outcome(item) with item = "C1CCC(SSC2CCCCC2)CC1"
label 0

Which outcome was assigned to "O=C(O)CCCCC(=O)O" in this test?
label 0

* * *

read-out: Collagen III, COL3A1 (gene 1281); assay: BSK_hDFCGF_CollagenIII: BioMAP Diversity Plus: hDFCGF Assay for Collagen III Biomarker Activity (AID 2283056); settings: primary human foreskin fibroblasts; actives raise or lower the signal
Active and inactive are the calls of the source. Rule for the calls: active = hit-call score of the fitted dose curve at least 0.9, where 1 is the maximum; inactive = score below 0.9.
Can you answer with just one of these options? active, inactive

Solved entries:
Compound: Nc1ccc(S(=O)(=O)c2ccc(N)cc2)cc1
Class label: inactive
//
Compound: CCCCOC(=O)CCCCCCCCC(=O)OCCCC
Class label: inactive
//
Compound: Nc1nc(N)c2nc(CNc3ccc(C(=O)N[C@@H](CCC(=O)O)C(=O)O)cc3)cnc2n1
Class label: inactive
//
Compound: COc1cc(C=O)ccc1O
Class label: inactive
//
Compound: CCCCCCCCCCC
Class label: inactive
//
Compound: Nc1ccc2c(c1)C(=O)c1ccccc1C2=O
Class label: inactive
//
Compound: FC(F)(F)C(F)(F)C(F)(F)C(F)(F)C(F)(F)C(F)(F)CCI
Class label: inactive
//
Compound: NCC1(Cc2noc(=O)[nH]2)CCCCC1
Class label: inactive

Now for a further compound.
Test call for this compound, please: "C1CCC(SSC2CCCCC2)CC1"
active

* * *

tested on: SERPINA7 (gene 6906); experiment: CCTE_GLTED_hTBG: CCTE's human Thyroxine-binding Globulin (TBG) Inhibition Assay, Great Lakes Toxicology and Ecology Division (GLTED) Lab (AID 2284343);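 note: active chemicals lower fluorescence versus DMSO baseline by displacing probe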
Activity calls are given as the source filed them. Rule for the calls: active = hit-call score of the fitted dose curve at least 0.9, where 1 is the maximum; inconclusive = response in the unintended direction; inactive = score below 0.9.
Reported endpoint: AC50

Worked cases, answers included:
Molecule: Oc1ccc2ccccc2c1N=Nc1ccccc1
Assay target: SERPINA7 (gene 6906)
Value measured: 22.2 µM (active)
--
Molecule: CCOC(=O)C(C)(C)Oc1ccc(Cl)cc1
Assay target: SERPINA7 (gene 6906)
Value measured: 24.9 µM (active)
--
Molecule: CCCCC(CC)COC(=O)CC(C(=O)OCC(CC)CCCC)S(=O)(=O)O (stereo not given)
Assay target: SERPINA7 (gene 6906)
Value measured: 1.95 µM (active)
--
Molecule: COc1cc(S(=O)(=O)O)c(C)cc1N=Nc1c(O)ccc2cc(S(=O)(=O)O)ccc12
Assay target: SERPINA7 (gene 6906)
Value measured: 35 µM (active)

Entry "Cc1ccc(C)c(O)c1C" , AC50 reported as 33.1 µM (active)

* * *

read-out: Interleukin-8 (IL8), CXCL8 (gene 3576); test: BSK_CASM3C_IL8: BioMAP Diversity Plus: CASM3C Assay for Interleukin-8 (IL8) Biomarker Activity (AID 2283042); settings: primary human coronary artery smooth muscle cells; actives raise or lower the signal;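 note: IL-8 protein level quantified by ELISA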
Calls of active or inactive are those of the source. The calls were made as follows: active = hit-call score of the fitted dose curve at least 0.9, where 1 is the maximum; inactive = score below 0.9.
Choose the fitting class; nothing outside active, inactive is accepted.

Molecule: FC(F)(F)C(F)(F)C(F)(F)C(F)(F)C(F)(F)C(F)(F)CCI
Class label: inactive
--
Molecule: COc1cc(-c2nc(NC(=O)c3cc4cc(C)cc(C)c4n3CC(=O)O)sc2CCC2CCCCC2)c(OC)cc1Cl
Class label: active
--
Molecule: Cc1cc(NC(=O)C(=O)O)cc(C)c1Oc1ccc(O)c2c1CCC2
Class label: inactive
--
Molecule: CC(C)(C)c1cc(O)c(C(C)(C)C)cc1O
Class label: inactive
--
Molecule: Cc1ccc2ncccc2c1
Class label: inactive

What classification did "O=C(OCCCCCOC(=O)c1ccccc1)c1ccccc1" end up with in this test?
inactive

Which result was noted for this molecule in the test: "NCC1(Cc2noc(=O)[nH]2)CCCCC1"
inactive

For "COc1cc(S(=O)(=O)O)c(C)cc1N=Nc1c(O)ccc2cc(S(=O)(=O)O)ccc12" , which call appears in the assay record?
inactive

What was the test verdict on "CCCCCCCCCCCCCCCC" ?
inactive

How was "CC(=O)OC/C=C(\C)CCC=C(C)C" classified in this test?
inactive

What did this assay record as the result for "O=c1[nH]cc(F)c(=O)[nH]1" ?
inactive

State the result this test recorded for "CCCCCCCCCCCCCCCCCC(=O)O" .
inactive

* * *

read-out: Forkhead box O3 (FOXO3), FOXO3 (gene 2309); test: LTEA_HepaRG_FOXO3: Life Technologies and Expression Analysis (LTEA) Assay for Forkhead box O3 (FOXO3) using HepaRG (AID 2283459); conditions: mRNA level, 48 h; actives raise or lower the signal
Calls of active or inactive are those of the source. The calls were made as follows: active = hit-call score of the fitted dose curve at least 0.9, where 1 is the maximum; inactive = score below 0.9.
Reported endpoint: AC50

Molecule: Cc1nc(C)nc(N2C[C@@H](C)N(c3ccnc([C@@H](C)O)n3)[C@@H](C)C2)n1
Value measured: inactive

Molecule: Cc1ccc(C)c(O)c1C
Value measured: inactive

Molecule: CN1CCCC1=O
Value measured: inactive

Molecule: Cc1cccc([N+](=O)[O-])c1C
Value measured: inactive

Short answer for "CCOC(=O)C(C)(C)Oc1ccc(Cl)cc1" : AC50 was inactive

* * *

read-out: CD40, CD40 (gene 958); assay: BSK_LPS_CD40: BioMAP Diversity Plus: LPS Assay for CD40 Biomarker Activity (AID 2283076); conditions: primary human HUVEC with PBMC; actives raise or lower the signal
The source made the active and inactive calls. How the source made its calls: active means hit-call score of the fitted dose curve at least 0.9, where 1 is the maximum; inactive means score below 0.9.
Would you mind answering with one of these outcomes? Y = active, N = inactive

Use these answered entries as a reference point.
Compound: O=c1[nH]cc(F)c(=O)[nH]1
Class label: Y
//
Compound: C=CCc1ccc(O)c(OC)c1
Class label: N
//
Compound: CCCCCCCCCCCCCCCCCC(=O)O
Class label: N
//
Compound: COc1cc(-c2nc(NC(=O)c3cc4cc(C)cc(C)c4n3CC(=O)O)sc2CCC2CCCCC2)c(OC)cc1Cl
Class label: Y
//
Compound: CC(CO)OC(C)CO (configuration not stated) (tested in a mixture with another compound)
Class label: N

Entry "Cc1c(C(=O)O)c(O)cc2c1C(=O)c1c(O)c([C@@H]3O[C@H](CO)[C@@H](O)[C@H](O)[C@H]3O)c(O)c(O)c1C2=O" : call = ?
Y

Which outcome was entered for the compound Cc1nc(-c2ccc3c(c2)CCN(CCC2CCC(NC(=O)/C=C/c4ccc(F)cc4)CC2)CC3)no1 (configuration not stated) in this test?
Y
